tested on: Fibroblast; test: Multiplex assay against human fibroblast; type: toxicity, cell-based; conditions: 12 h, 1 µM, compound concentration 1 uM, replicate 2
# if value of Population Apoptotic (%) reaches 30%, tag 1 (yes); if it stays below, tag 0 (no)

1) Cc1cn(-c2cc(NC(=O)c3ccc4c(c3)CN(c3cncnc3)C[C@@H]4C)cc(C(F)(F)F)c2)cn1 = 1 (yes)

Query block: Given the entry Nc1ccc(C(=O)Nc2cccc(-c3nc(N4CCOCC4)c4oc5ncccc5c4n3)c2)cn1 , answer whether its Population Apoptotic (%) meets or surpasses 30%.
Result block: 0 (no)

Query block: Has CCn1c(-c2nonc2N)nc2cnc(Oc3cccc(NC(=O)c4ccc(OCCN5CCOCC5)cc4)c3)cc21 [GSK-269962A] a recorded Population Apoptotic (%) greater than or equal to 30%?
Result block: 0 (no)
